All figures here come from paper PMC8882856.

# TARGET UNDER TEST: human β1‐adrenoceptor (Homo sapiens, UniProt P08588)
# Sequence (P08588 whole entry): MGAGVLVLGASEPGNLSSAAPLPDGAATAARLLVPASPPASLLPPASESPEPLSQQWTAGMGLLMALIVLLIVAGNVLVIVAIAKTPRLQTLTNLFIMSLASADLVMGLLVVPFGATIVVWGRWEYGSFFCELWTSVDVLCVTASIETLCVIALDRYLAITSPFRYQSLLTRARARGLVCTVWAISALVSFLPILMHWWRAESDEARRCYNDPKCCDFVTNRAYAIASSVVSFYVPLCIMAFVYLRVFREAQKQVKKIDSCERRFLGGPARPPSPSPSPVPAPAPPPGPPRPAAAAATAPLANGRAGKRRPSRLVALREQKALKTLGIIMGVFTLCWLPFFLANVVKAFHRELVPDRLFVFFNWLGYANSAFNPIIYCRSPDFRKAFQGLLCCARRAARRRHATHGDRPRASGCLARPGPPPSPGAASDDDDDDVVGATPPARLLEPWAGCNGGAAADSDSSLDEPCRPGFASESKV
# CONDITIONS: ^3H‐CGP12177 whole cell binding; log values, mean ± s.e.mean; ^app = apparent KD; 'no binding to' = log top concentration
READOUT TYPE: Log KD β1

Use the examples below as a reference point.
COc1ccc(C(CN(C)C)C2(O)CCCCC2)cc1 (stereo not shown) [venlafaxime] : −3.80 ± 0.11^app
CCS(=O)(=O)N1CCC[C@@H]2CN3CCc4cc(OC)ccc4[C@@H]3C[C@@H]21 [RS79948] : −3.84 ± 0.05
CN(C)CCCC1(c2ccc(F)cc2)OCc2cc(C#N)ccc21 (stereo not shown) [citalopram] : No binding to −4
COc1cccc(OC)c1OCCNCC1CSc2ccccc2O1 (stereo not shown) [benoxathian] : −4.55 ± 0.03^app
O=C1Cc2cc(CCN3CCN(c4nsc5ccccc45)CC3)c(Cl)cc2N1 [ziprasidone] : No binding to −4
COc1cc2nc(N3CCN(C(=O)c4ccco4)CC3)nc(N)c2cc1OC [prazosin] : No binding to −4

The recorded Log KD β1 for entry COc1cc2nc(N3CCN(C(=O)C4CCCO4)CC3)nc(N)c2cc1OC (stereo not shown) [terazosin] equals No binding to −4
